- Test system: SW-620 colon
- TEST_NAME: NCI tumour cell line growth inhibition, 48 h
Peptide text beside a SMILES is read from it. * marks the point of attachment. Cbz = O=C(OCc1ccccc1)*

[
  {
    "MOLECULE": "O=C1C2CCCCC2C(=O)N1n1c(Cc2ccccc2)n[nH]c1=O (centres undefined)",
    "TGI": "> 100 µM"
  },
  {
    "MOLECULE": "COc1cc2ccnc(-c3n[nH]c4cc(OC)c(OC)cc34)c2cc1OC",
    "TGI": "> 100 µM"
  },
  {
    "MOLECULE": "COc1cc(CO)cc2c1[nH]c1ccccc12",
    "TGI": "> 25 µM"
  },
  {
    "MOLECULE": "CCOC(=O)C1=C(Nc2cccc3ccccc23)OCC1=O",
    "TGI": "> 100 µM"
  },
  {
    "MOLECULE": "CC(C)C1COC(C(C)(C)C2=N[C@@H](C(C)C)CO2)=N1 (some centres undefined)",
    "TGI": "> 100 µM"
  },
  {
    "MOLECULE": "CC(=O)OCCC/C(=C/c1cc2ccccc2c2ccccc12)[N+](=O)[O-]",
    "TGI": "2.81 µM"
  },
  {
    "MOLECULE": "CCN(CC)CCC(CNc1c(C)cnc2cc(Cl)ccc12)c1ccc(Cl)c(Cl)c1 (centres undefined)",
    "TGI": "7 µM"
  },
  {
    "MOLECULE": "CCN1C(=O)N[C@H]2[C@@H]3NC(=O)c4ccc(Cl)n4[C@@H]3C[C@]21O",
    "TGI": "> 100 µM"
  },
  {
    "MOLECULE": "CN1C(CC(O)c2ccccc2)CCCC1CC(O)(c1ccccc1)c1ccccc1 (centres undefined)",
    "TGI": "39 µM"
  },
  {
    "MOLECULE": "O=C1c2ccccc2-c2c1c1ccc([N+](=O)[O-])cc1c(=O)n2CCN1CCOCC1",
    "TGI": "> 100 µM"
  },
  {
    "MOLECULE": "CC(C)C(=O)/C=C/c1ccc(Cl)cc1Cl",
    "TGI": "7.92 µM"
  },
  {
    "MOLECULE": "CCOc1ccc2c(c1)[n+]([O-])c(-c1ccc([N+](=O)[O-])cc1)c(N)[n+]2[O-]",
    "TGI": "> 100 µM"
  },
  {
    "MOLECULE": "CC(NC(=O)c1ccc(OP(=O)(OCc2ccc([N+](=O)[O-])o2)N(C)CCCCCl)cc1)c1ccc(OCC2CCCCC2)c(C(N)=O)c1 (centres undefined)",
    "TGI": "> 43.1 µM"
  },
  {
    "MOLECULE": "O=C(c1nc2ccc(Cl)cc2[nH]c1=O)C(O)c1ccco1 (centres undefined)",
    "TGI": "> 100 µM"
  },
  {
    "MOLECULE": "Nc1csc(-c2scc3c2OCCO3)c1N",
    "TGI": "87.9 µM"
  },
  {
    "MOLECULE": "CC(C)=CC1(C)/C(=N\\O)C(C)(CC(C)C)C(=O)N1O (centres undefined)",
    "TGI": "> 100 µM"
  },
  {
    "MOLECULE": "COC(OC)[C@@H]1OC[C@H](n2ccc(=O)[nH]c2=O)[C@H]1O",
    "TGI": "> 100 µM"
  },
  {
    "MOLECULE": "CCOC1Oc2ccccc2-c2nc(N)ncc21 (centres undefined)",
    "TGI": "> 100 µM"
  },
  {
    "MOLECULE": "Nc1nc(Cl)cc(NCC2(CO)CC=CC2)n1",
    "TGI": "> 100 µM"
  },
  {
    "MOLECULE": "N#CCc1ccccc1/C(C#N)=C1/OC(=N)C(c2ccccc2CC#N)C1=O (centres undefined)",
    "TGI": "> 100 µM"
  },
  {
    "MOLECULE": "COc1cc([N+](=O)[O-])cc2c1NC(=O)C2(C)SC (centres undefined)",
    "TGI": "> 100 µM"
  },
  {
    "MOLECULE": "c1ccc(C[N+]23C(CC[C@H]2c2ccccc2)CC[C@H]3c2ccccc2)cc1 (some centres undefined)",
    "TGI": "> 100 µM"
  },
  {
    "MOLECULE": "O=C(Cc1ccc(-c2ccc(OCCN3CCOCC3)cc2)cn1)NCc1ccccc1",
    "TGI": "> 100 µM"
  },
  {
    "MOLECULE": "COc1ccc(-n2nc(C(=O)c3ccccc3)c3nn4c(=O)cc(-c5ccccc5)nc4nc32)cc1",
    "TGI": "> 100 µM"
  },
  {
    "MOLECULE": "C#CCn1c2c(c3ccccc3c1=O)C(=O)c1ccccc1-2",
    "TGI": "> 100 µM"
  },
  {
    "MOLECULE": "CC1(C)OC2C(O1)[C@H]1OC(C(Cl)(Cl)Cl)=N[C@H]1C(I)[C@H]2N1C(=O)c2ccccc2C1=O (some centres undefined)",
    "TGI": "> 100 µM"
  },
  {
    "MOLECULE": "CCC1=NC(N/N=C/c2ccco2)=N/C1=C\\c1ccco1",
    "TGI": "> 100 µM"
  },
  {
    "MOLECULE": "CC(NNC(=S)N1CCN(c2ccccn2)CC1)c1cccc[n+]1[O-] (centres undefined)",
    "TGI": "> 100 µM"
  },
  {
    "MOLECULE": "Cc1ccc(S(=O)(=O)Nc2cc(=O)[nH]c3c2CCC3)cc1",
    "TGI": "> 100 µM"
  },
  {
    "MOLECULE": "COc1cc2c(cc1OC)C(Cc1cc(Br)c(OC)c(OC)c1)=[N+](C)CC2",
    "TGI": "> 100 µM"
  },
  {
    "MOLECULE": "COc1cc2c3c(n(CCCN=[N+]=[N-])c(=O)c2cc1OC)-c1ccc(NC(C)=O)cc1C3=O",
    "TGI": "> 50 µM"
  },
  {
    "MOLECULE": "COc1cc(NC(=O)c2cc3ccccc3cc2O)c(OC)cc1Cl",
    "TGI": "> 34.5 µM"
  },
  {
    "MOLECULE": "O=C(Cn1c2c(c3ccccc31)CCCC2)N1CCOCC1",
    "TGI": "> 100 µM"
  },
  {
    "MOLECULE": "COc1ccccc1C(=O)Nc1ccc(Cl)c(C(=O)OC(C)C)c1",
    "TGI": "> 100 µM"
  },
  {
    "MOLECULE": "OC1CCSc2ccccc21 (centres undefined)",
    "TGI": "> 100 µM"
  },
  {
    "MOLECULE": "OCCCN=C1N=C(Cl)/C(=C\\c2ccccc2)N1",
    "TGI": "> 100 µM"
  },
  {
    "MOLECULE": "CC(C(=O)c1ccc(O)cc1)C1(O)C(=O)Nc2c(Cl)cc(Cl)cc21 (centres undefined)",
    "TGI": "> 100 µM"
  },
  {
    "MOLECULE": "CC(C)(C)c1cc(C#N)c2c(c1)C(=O)OC2(c1ccccc1)c1ccccc1C#N (centres undefined)",
    "TGI": "> 100 µM"
  },
  {
    "MOLECULE": "CN(CCc1ccccn1)c1ccc2c(c1)Cc1ccccc1-2",
    "TGI": "> 100 µM"
  },
  {
    "MOLECULE": "CN(C)c1cccc2c(S(=O)(=O)NCCCNCCN)cccc12",
    "TGI": "> 100 µM"
  },
  {
    "MOLECULE": "C=C(CN(C)C)C(=O)c1ccccc1Cl",
    "TGI": "27.7 µM"
  },
  {
    "MOLECULE": "CCOC(=O)CCC(NC(=O)CNC(=O)CNC(=O)C(CCC(=O)OCC)NC(=O)C(CCC(=O)OCC)NC(=O)C(CCC(=O)OCC)NC(=O)OCc1ccccc1)C(=O)NC(CCC(=O)OCC)C(=O)NC(CCC(=O)OCC)C(=O)OCC (centres undefined) (Cbz-E(OEt)E(OEt)E(OEt)GGE(OEt)E(OEt)E(OEt)-OEt; configuration not given here)",
    "TGI": "> 75 µM"
  },
  {
    "MOLECULE": "CN(CCCN1CCCC1)CCCN(C)C(=O)Cc1ccc(Cl)c(Cl)c1",
    "TGI": "50.7 µM"
  },
  {
    "MOLECULE": "CCOC(=O)/C(=C/c1ccccc1)N(CC)CC",
    "TGI": "> 100 µM"
  }
]
